- experimental system: Interleukin-8 (IL8, CXCL8), C-terminal His-tagged (Homo sapiens, UniProt P10145 SEQ:1-72)
- Sequence (P10145 28-99): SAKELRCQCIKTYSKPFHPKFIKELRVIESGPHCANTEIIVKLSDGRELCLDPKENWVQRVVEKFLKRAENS
- assay procedure: TR-FRET; bead flow 7 nM
- condition info: tags: C-terminal 6xHis (Sino Biological); label: Alexa Fluor 647
endpoint: Kd (nM)
Numbers only, in nM.

Given UCUGAAUCGGCUGAAACGGGAGCAUUAAUGUCCGGU (ssRNA, 2'-F G, 2'-OMe A/C/U, 5' C6NH2, 3' idT) [Aptamer 22] , state its recorded Kd. 15
